# study_system: Galanin receptor type 1 (Homo sapiens)
# Sequence (P47211 whole entry): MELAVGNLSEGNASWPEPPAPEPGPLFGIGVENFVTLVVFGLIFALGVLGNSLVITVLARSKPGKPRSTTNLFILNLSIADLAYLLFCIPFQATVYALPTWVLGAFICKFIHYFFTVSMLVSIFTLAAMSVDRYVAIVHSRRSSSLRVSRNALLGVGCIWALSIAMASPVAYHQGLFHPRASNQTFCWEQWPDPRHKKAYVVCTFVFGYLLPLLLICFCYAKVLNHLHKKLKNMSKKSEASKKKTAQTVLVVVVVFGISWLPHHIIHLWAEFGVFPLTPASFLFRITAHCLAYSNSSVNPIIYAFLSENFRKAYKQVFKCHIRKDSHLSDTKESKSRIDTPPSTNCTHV
# experimental_protocol: Displacement of europium labeled galanin from human recombinant GalR1 receptor by time-resolved fluorescence binding assay
# pKi values compiled below
Just the number, please; pKi means minus log10 of the concentration in mol/L.

{"columns": ["test_smiles", "pKi"],
 "data": [
  ["CCCCCCCC(=O)NCCCC[C@H](NC(=O)[C@H](CCCCN)NC(=O)[C@H](CCCCN)NC(=O)[C@@H]1CCCN1C(=O)CNC(=O)[C@H](CC(C)C)NC(=O)[C@H](CC(C)C)NC(=O)[C@H](Cc1ccc(O)cc1)NC(=O)CNC(=O)[C@H](C)NC(=O)[C@H](CO)NC(=O)[C@H](CC(N)=O)NC(=O)[C@H](CC(C)C)NC(=O)[C@@H](NC(=O)[C@H](Cc1c[nH]c2ccccc12)NC(=O)CNC)[C@@H](C)O)C(=O)N[C@@H](CCCCN)C(N)=O", 9.15]
]}

Please look at the following compound next.
Form entry - test system: Galanin receptor type 1 (Homo sapiens); read-out: pKi; compound: CCCCCCCCCCCCCC(=O)NCCCC[C@H](NC(=O)[C@H](CCCCN)NC(=O)[C@H](CCCCN)NC(=O)[C@@H]1CCCN1C(=O)CNC(=O)[C@H](CC(C)C)NC(=O)[C@H](CC(C)C)NC(=O)[C@H](Cc1ccc(O)cc1)NC(=O)CNC(=O)[C@H](C)NC(=O)[C@H](CO)NC(=O)[C@H](CC(N)=O)NC(=O)[C@H](CC(C)C)NC(=O)[C@@H](NC(=O)[C@H](Cc1c[nH]c2ccccc12)NC(=O)CNC)[C@@H](C)O)C(=O)N[C@@H](CCCCN)C(N)=O 8.59

###

# study_system: Galanin receptor type 2 (Homo sapiens)
# Sequence (O43603 whole entry): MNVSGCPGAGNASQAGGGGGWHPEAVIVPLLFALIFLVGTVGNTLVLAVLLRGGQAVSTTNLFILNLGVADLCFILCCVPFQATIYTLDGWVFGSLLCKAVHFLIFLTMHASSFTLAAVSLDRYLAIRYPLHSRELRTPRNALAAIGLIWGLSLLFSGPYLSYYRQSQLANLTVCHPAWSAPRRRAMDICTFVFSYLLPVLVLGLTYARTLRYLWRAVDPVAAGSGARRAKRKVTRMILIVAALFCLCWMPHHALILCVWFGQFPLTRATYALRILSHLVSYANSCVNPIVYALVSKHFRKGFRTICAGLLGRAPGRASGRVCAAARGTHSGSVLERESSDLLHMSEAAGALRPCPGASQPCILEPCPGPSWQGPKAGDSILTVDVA
# experimental_protocol: Displacement of europium labeled galanin from human recombinant GalR2 receptor by time-resolved fluorescence binding assay
attribute_measured: Ki (nM)
Give the number; nM is assumed, so skip it.

Before answering, review these 2 worked examples.
{"columns": ["test_smiles", "unit_name", "Ki"],
 "data": [
  ["CCCCCCCC(=O)NCCCC[C@H](NC(=O)[C@H](CCCCN)NC(=O)[C@H](CCCCN)NC(=O)[C@@H]1CCCN1C(=O)CNC(=O)[C@H](CC(C)C)NC(=O)[C@H](CC(C)C)NC(=O)[C@H](Cc1ccc(O)cc1)NC(=O)CNC(=O)[C@H](C)NC(=O)[C@H](CO)NC(=O)[C@H](CC(N)=O)NC(=O)[C@H](CC(C)C)NC(=O)[C@@H](NC(=O)[C@H](Cc1c[nH]c2ccccc12)NC(=O)CNC)[C@@H](C)O)C(=O)N[C@@H](CCCCN)C(N)=O", "nM", 14.9],
  ["CCCCCCCCCC(=O)NCCCC[C@H](NC(=O)[C@H](CCCCN)NC(=O)[C@H](CCCCN)NC(=O)[C@@H]1CCCN1C(=O)CNC(=O)[C@H](CC(C)C)NC(=O)[C@H](CC(C)C)NC(=O)[C@H](Cc1ccc(O)cc1)NC(=O)CNC(=O)[C@H](C)NC(=O)[C@H](CO)NC(=O)[C@H](CC(N)=O)NC(=O)[C@H](CC(C)C)NC(=O)[C@@H](NC(=O)[C@H](Cc1c[nH]c2ccccc12)NC(=O)CNC)[C@@H](C)O)C(=O)N[C@@H](CCCCN)C(N)=O", "nM", 14.4]
]}

Please look at the following molecule next.
Form entry - test system: Galanin receptor type 2 (Homo sapiens); read-out: Ki; molecule: CCCCCCCCCCCCCCCCCC(=O)NCCCC[C@H](NC(=O)[C@H](CCCCN)NC(=O)[C@H](CCCCN)NC(=O)[C@@H]1CCCN1C(=O)CNC(=O)[C@H](CC(C)C)NC(=O)[C@H](CC(C)C)NC(=O)[C@H](Cc1ccc(O)cc1)NC(=O)CNC(=O)[C@H](C)NC(=O)[C@H](CO)NC(=O)[C@H](CC(N)=O)NC(=O)[C@H](CC(C)C)NC(=O)[C@@H](NC(=O)[C@H](Cc1c[nH]c2ccccc12)NC(=O)CNC)[C@@H](C)O)C(=O)N[C@@H](CCCCN)C(N)=O 15

###

# experimental_protocol: Lipophilicity, log D by HPLC method
# Format: physicochemical
# logD values compiled below
I only need the number, thanks.

{"columns": ["test_smiles", "test_result"],
 "data": [
  ["CCCCCCCCCCCCCCCCCC(=O)NCCCC[C@H](NC(=O)[C@H](CCCCN)NC(=O)[C@H](CCCCN)NC(=O)[C@@H]1CCCN1C(=O)CNC(=O)[C@H](CC(C)C)NC(=O)[C@H](CC(C)C)NC(=O)[C@H](Cc1ccc(O)cc1)NC(=O)CNC(=O)[C@H](C)NC(=O)[C@H](CO)NC(=O)[C@H](CC(N)=O)NC(=O)[C@H](CC(C)C)NC(=O)[C@@H](NC(=O)[C@H](Cc1c[nH]c2ccccc12)OC(=O)CNC)[C@@H](C)O)C(=O)N[C@@H](CCCCN)C(N)=O", 1.35]
]}

Please look at the following compound next.
Quick one: logD of CCCCCCCC(=O)NCCCC[C@H](NC(=O)[C@H](CCCCN)NC(=O)[C@H](CCCCN)NC(=O)[C@@H]1CCCN1C(=O)CNC(=O)[C@H](CC(C)C)NC(=O)[C@H](CC(C)C)NC(=O)[C@H](Cc1ccc(O)cc1)NC(=O)CNC(=O)[C@H](C)NC(=O)[C@H](CO)NC(=O)[C@H](CC(N)=O)NC(=O)[C@H](CC(C)C)NC(=O)[C@@H](NC(=O)[C@H](Cc1c[nH]c2ccccc12)OC(=O)CNC)[C@@H](C)O)C(=O)N[C@@H](CCCCN)C(N)=O ? 0.78

###

# study_system: Galanin receptor type 2 (Homo sapiens, UniProt O43603)
# Sequence (O43603 whole entry): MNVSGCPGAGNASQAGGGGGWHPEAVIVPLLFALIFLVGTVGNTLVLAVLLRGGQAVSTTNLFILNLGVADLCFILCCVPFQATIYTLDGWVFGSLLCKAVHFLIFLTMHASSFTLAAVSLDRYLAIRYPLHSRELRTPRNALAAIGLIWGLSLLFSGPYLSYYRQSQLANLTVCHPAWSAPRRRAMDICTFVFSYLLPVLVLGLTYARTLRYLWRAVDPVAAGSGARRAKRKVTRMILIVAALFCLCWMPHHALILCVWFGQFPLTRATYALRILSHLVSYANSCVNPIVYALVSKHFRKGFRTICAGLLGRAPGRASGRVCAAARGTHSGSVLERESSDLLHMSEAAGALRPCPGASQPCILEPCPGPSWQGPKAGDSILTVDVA
# experimental_protocol: Displacement of europium labeled galanin from human recombinant GalR2 receptor by time-resolved fluorescence binding assay
# Ki values compiled below
Give the number; nM is assumed, so skip it.

Before answering, review these 2 worked examples.
{"columns": ["test_smiles", "attribute_measured", "unit_name", "test_result"],
 "data": [
  ["CCCCCCCCCCCCCC(=O)NCCCC[C@H](NC(=O)[C@H](CCCCN)NC(=O)[C@H](CCCCN)NC(=O)[C@@H]1CCCN1C(=O)CNC(=O)[C@H](CC(C)C)NC(=O)[C@H](CC(C)C)NC(=O)[C@H](Cc1ccc(O)cc1)NC(=O)CNC(=O)[C@H](C)NC(=O)[C@H](CO)NC(=O)[C@H](CC(N)=O)NC(=O)[C@H](CC(C)C)NC(=O)[C@@H](NC(=O)[C@H](Cc1c[nH]c2ccccc12)NC(=O)CNC)[C@@H](C)O)C(=O)N[C@@H](CCCCN)C(N)=O", "Ki", "nM", 18.2],
  ["CNCC(=O)N[C@@H](Cc1c[nH]c2ccccc12)C(=O)N[C@H](C(=O)N[C@@H](CC(C)C)C(=O)N[C@@H](CC(N)=O)C(=O)N[C@@H](CO)C(=O)N[C@@H](C)C(=O)NCC(=O)N[C@@H](Cc1ccc(O)cc1)C(=O)N[C@@H](CC(C)C)C(=O)N[C@@H](CC(C)C)C(=O)NCC(=O)N1CCC[C@H]1C(=O)N[C@@H](CCCCN)C(=O)N[C@@H](CCCCN)C(=O)N[C@@H](CCCCNC(=O)COCCOCCOCCOCCOC)C(=O)N[C@@H](CCCCN)C(N)=O)[C@@H](C)O", "Ki", "nM", 20.5]
]}

Please look at the following compound next.
Quick one: Ki of CCCCCCCCCCCC(=O)NCCCC[C@H](NC(=O)[C@H](CCCCN)NC(=O)[C@H](CCCCN)NC(=O)[C@@H]1CCCN1C(=O)CNC(=O)[C@H](CC(C)C)NC(=O)[C@H](CC(C)C)NC(=O)[C@H](Cc1ccc(O)cc1)NC(=O)CNC(=O)[C@H](C)NC(=O)[C@H](CO)NC(=O)[C@H](CC(N)=O)NC(=O)[C@H](CC(C)C)NC(=O)[C@@H](NC(=O)[C@H](Cc1c[nH]c2ccccc12)NC(=O)CNC)[C@@H](C)O)C(=O)N[C@@H](CCCCN)C(N)=O ? 16.1
